assay: Method 11: Single Dose Pharmacokinetics and Oral Bioavailability in Male Sprague-Dawley Rat; type: in vivo; details: plasma, po, 2 mg/kg, mean
Collected Cmax values appear next to each entry.
readout.label: Cmax (ng/mL)

Cc1cc(Nc2nc(N3CCC(C(=O)O)CC3)nc3c(C)nn(CCOCC(F)(F)F)c23)ncn1 [WO2004096810 Example 262]	87.1
CCOCCn1nc(CC)c2nc(N3CCC(C(=O)O)CC3)nc(Nc3cc(C)ccn3)c21 [Carboxypiperidine Compound]	1360
CCc1nn(CCOCC(F)(F)F)c2c(Nc3cc(C)ncn3)nc(N3CCC(C(=O)O)CC3)nc12 [WO2004096810 Example 263]	102
Cc1ccnc(Nc2nc(N3CCC(C(=O)O)CC3)nc3c(C)nn(CCOCC(F)(F)F)c23)c1 [WO2004096810 Example 261]	2350

---

assay: Method 11: Single Dose Pharmacokinetics and Oral Bioavailability in Male Sprague-Dawley Rat; type: in vivo; settings: po 2 mg/kg vs iv 2 mg/kg, mean
Collected F values appear next to each entry.
readout.label: F (%)

CCc1nn(CCOCC(F)(F)F)c2c(Nc3cc(C)ncn3)nc(N3CCC(C(=O)O)CC3)nc12	60.0
Cc1ccnc(Nc2nc(N3CCC(C(=O)O)CC3)nc3c(C)nn(CCOCC(F)(F)F)c23)c1	105
CCOCCn1nc(CC)c2nc(N3CCC(C(=O)O)CC3)nc(Nc3cc(C)ccn3)c21	51.8
Cc1cc(Nc2nc(N3CCC(C(=O)O)CC3)nc3c(C)nn(CCOCC(F)(F)F)c23)ncn1	63.9

---

molecular target: PDE11 enzyme (Homo sapiens, UniProt Q9HCR9, DUP921-921); construct: FLAG (N); made in house; host or cells: Sf9 insect cells (baculovirus, pFastBac); assay: Method 3: Human Recombinant PDE11 Enzyme Inhibition Scintillation Proximity Assay (SPA); type: biochemical; settings: Table F, WO2004096810 examples; read-out: METHOD 3: PDE11 IC50
Sequence (Q9HCR9 with tags, fused parts or gaps DUP921-921 limits assumed): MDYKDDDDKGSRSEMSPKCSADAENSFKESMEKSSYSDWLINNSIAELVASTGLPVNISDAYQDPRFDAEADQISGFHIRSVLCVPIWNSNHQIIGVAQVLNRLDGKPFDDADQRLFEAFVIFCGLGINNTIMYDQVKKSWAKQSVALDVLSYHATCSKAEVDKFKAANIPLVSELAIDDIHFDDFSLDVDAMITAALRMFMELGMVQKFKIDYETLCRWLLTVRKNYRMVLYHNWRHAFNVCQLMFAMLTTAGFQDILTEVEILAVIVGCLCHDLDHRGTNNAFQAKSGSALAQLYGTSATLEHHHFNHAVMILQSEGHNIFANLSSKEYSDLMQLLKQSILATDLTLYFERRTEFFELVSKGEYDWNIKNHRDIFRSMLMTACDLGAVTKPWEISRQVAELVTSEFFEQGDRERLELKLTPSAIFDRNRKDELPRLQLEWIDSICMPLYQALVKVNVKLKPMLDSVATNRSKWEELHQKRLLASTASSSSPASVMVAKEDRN
pIC50: −log10 of the molar value.
Label NO if pIC50 falls below 6; label YES in every other case.

CCc1nn(CCOCC(F)(F)F)c2c(Nc3ccnnc3)nc(N3CCN[C@H](C)C3)nc12	YES
CCc1nn(CCOCC(F)(F)F)c2c(Nc3ccnc(C)n3)nc(N3CCN[C@H](C)C3)nc12	NO
Cc1nccc(Nc2nc(N3CCN[C@H](C)C3)nc3c(C)nn(CCOCC(F)(F)F)c23)n1	NO
Cc1cccc(Nc2nc(N3CCNCC3)nc3c(C)nn(CCOCC(F)(F)F)c23)n1	YES
Cc1cc(Nc2nc(N3CCC(C(=O)O)CC3)nc3c(C)nn(CCOCC(F)(F)F)c23)ncn1	YES

---

target: PDE5 enzyme (Homo sapiens, UniProt O76074); construct: The PDE5 enzyme isolated from human platelets; from tissue; host or cells: human platelets; experiment: Method 1: Human Platelet PDE5 Enzyme Inhibition Scintillation Proximity Assay; assay type: biochemical; conditions: METHOD 1: PDE5 IC50, Table B, WO2004096810 examples
Flag rule - IC50 less than 20 nM flags condition met; the remaining entries get condition not met.

CCOCCn1nc(CC)c2nc(N3C[C@@H](C)NC[C@@H]3C)nc(Nc3ccc(C)cn3)c21	condition not met
CCOCCn1nc(C)c2nc(N(C)CCOC)nc(Nc3cc(C)ccn3)c21	condition met
CCOCCn1nc(CC)c2nc(N(C)[C@@H]3CCN(C)C3)nc(Nc3cc(C)ccn3)c21	condition met
CCOCCn1nc(C)c2nc(N3C[C@@H]4C[C@H]3CN4C)nc(Nc3cc(C)ccn3)c21	condition met
CCOCCn1nc(CC)c2nc(N3CCN[C@H](CC)C3)nc(Nc3ccncn3)c21	condition met
CCCc1nn(C)c2c(Nc3cc(C)ccn3)nc(NCc3ccc(OC)cc3)nc12	condition not met
CCCc1nn(C)c2c(Nc3ccncn3)nc(N3CCN[C@H](C)C3)nc12	condition not met
